Listed here are molecules together with their documented MIC.
# Tested on: H. influenzae strains
# MEASUREMENT_PROTOCOL: MIC against H. influenzae strains (Table M8)
# Format: cell-based
# SETTINGS: Haemophilus influenzae, H. influenzae 49247; read-out: MIC H. influenzae (49247)
PARAMETER: MIC (µg/mL)

MOLECULE: CC[C@H]1OC(=O)[C@H](C)C(=O)[C@H](C)[C@@H](O[C@@H]2OC(C)CC(N(C)C)C2O)[C@](C)(OC)CCN[C@H](C)[C@H]2N(CCCCn3cc(-c4cccc(N)c4)nn3)C(=O)O[C@]12C (some centres unmarked)
PARAMETER: MIC
VALUE_UNITS: µg/mL
QUAL: >
MEASURED_VALUE: 32

MOLECULE: CC[C@H]1OC(=O)[C@H](C)C(=O)[C@H](C)[C@@H](O[C@@H]2OC(C)CC(N(C)C)C2O)[C@](C)(OC)C[C@@H](C)CN[C@H](C)[C@H]2N(CCCCn3cc(-c4nc5ccccc5s4)nn3)C(=O)O[C@]12C (some centres unmarked)
PARAMETER: MIC
VALUE_UNITS: µg/mL
QUAL: =
MEASURED_VALUE: 1
